The reported measurements were obtained from ChEMBL document CHEMBL1201862.

system: SF-295; test: NCI tumour cell line growth inhibition, 48 h
Activity calls are given as the source filed them. Rule as the data show it: active = GI50 up to about 1.1 µM and inactive = higher.
Classes to choose from: active, inactive

Sample answers from the record:
>  <molecule>
Cc1nc2cccc(F)c2c(=O)n1C1CCCCNC1=O (centres undefined)

>  <class_name>
inactive

$$$$
>  <molecule>
COc1ccc(-c2ncn(C[Si](C)(C)C)c2-c2ccc(OC)cc2)cc1

>  <class_name>
inactive

$$$$
>  <molecule>
COc1cc(C[C@H]2c3cc(OC)c(OC)cc3CCN2C)c(Oc2cc3c(cc2OC)-c2c(OC)c(OC)cc4c2[C@H](C3)N(C)CC4)cc1OC [THALICARPINE]

>  <class_name>
inactive

$$$$

Next molecule, please.
Prompt line: Tell me the assay call for CC(=O)n1c2ccc(Br)cc2c2nc3ccccc3nc21 please.
Response line: inactive

* * *

test system: OVCAR-3; experiment: NCI tumour cell line growth inhibition, 48 h
Calls of active or inactive are those of the source. Cut-off read from the data, not from the text of the source: active = GI50 up to about 1.1 µM and inactive = higher.
// one of active, inactive, no free text

Use the examples below as a reference point.
>  <compound>
Cc1nc2c(=O)n(C)c(=O)n(C)c2o1

>  <class_name>
inactive

$$$$
>  <compound>
O=C1Nc2c(Cl)cc(Cl)cc2C1=O

>  <class_name>
inactive

$$$$
>  <compound>
Cc1ccc2nc(-c3ccc(N4C(=O)C(Cl)C4c4ccc(Cl)cc4)cc3)sc2c1 (centres undefined)

>  <class_name>
inactive

$$$$
>  <compound>
O=[N+]([O-])c1ccc(Cl)c(C2SCc3nc4ccccc4n32)c1 (centres undefined)

>  <class_name>
inactive

$$$$
>  <compound>
Cc1cc(N)c(C)c2c1[nH]c1ccc(O)cc12

>  <class_name>
inactive

$$$$

Prompt line: Could you kindly confirm the outcome this assay logged for COc1cc(N(C)C)ccc1C=c1c2ccccc2n2c1cc(-c1ccccc1)[n+]2C ?
Response line: active

Prompt line: Assay result, entry c1ccc(Nc2nnc(CSc3nc(-c4ccccc4)c(-c4ccccc4)[nH]3)s2)cc1 — outcome?
Response line: inactive

Prompt line: State the result this test recorded for COC1=C(OC)C(=O)C(Cc2c(C)nc3sc(C)cn23)=C(C)C1=O .
Response line: inactive

Prompt line: For COc1ccc2c(c1)OC1c3ccccc3OCC21 (centres undefined) , which call appears in the assay record?
Response line: inactive

Prompt line: Lab log entry: Cc1sc(Nc2ccccc2[N+](=O)[O-])c(C#N)c1C — outcome as called in the assay?
Response line: inactive

Prompt line: Field: outcome | Entry: CC(=O)OCCOCn1c2c(c(=O)[nH]c1=O)CCC2
Response line: inactive

Prompt line: Returns: the outcome recorded for O=CN1CCC23CC(O)CCC2C1Cc1cc(Oc2nnnn2-c2ccccc2)cc(O)c13 (centres undefined) in this assay.
Response line: inactive

Prompt line: Assay outcome for N=C(N)CCNC(=O)C1CCC(N)=N1 (centres undefined) : what was it?
Response line: inactive

Prompt line: # outcome recorded in this test, key = CCOP(=Nc1ccc(N(C)C)cc1)(OCC)OCC
Response line: inactive

Prompt line: Can you look up the reported call for CCOP(=O)(C=C=C1CCC2[C@@H]3CCc4cc(OC)ccc4C3CC[C@]12C)OCC (some centres undefined) for me?
Response line: inactive

Prompt line: Outcome? CCOC(=O)c1c(-c2ccc(OC)cc2)c(C#N)c(=S)n(C2OC(CO)C(O)C(O)C2O)c1C (centres undefined)
Response line: inactive

Prompt line: Query: recorded result category for CN(C)/C=N\c1cc[nH]c(=O)n1 in this test
Response line: inactive

Prompt line: What is the recorded call for this compound in the test? CN(O)C(=O)CCCC(=O)NCC(C)(C)CNC(=O)CCCC(=O)N(C)O
Response line: inactive

Prompt line: Recorded test outcome, item c1cc(C2N3CCCN2CC3)ccn1 (centres undefined)
Response line: inactive

* * *

system: SW-620; test: NCI tumour cell line growth inhibition, 48 h
Calls of active or inactive are those of the source. No stated cut-off is given here; in the data, active = GI50 up to about 1.1 µM and inactive = higher.
parameter: GI50

Entry under test: NC(=O)c1csc(C2O[C@@H](COP(=O)(O)OP(=O)(O)OC[C@H]3OC(n4cnc5c(N)ncnc54)[C@H](O)[C@@H]3O)[C@H](O)[C@@H]2O)n1 (some centres not stated) . Its GI50 was > 100 µM (inactive)

The molecule listed as CCOc1ccc2[nH]c3c(C)c4cc[n+](C)cc4c(C)c3c2c1 has a reported GI50 of 1.28 µM (inactive)

GI50 for N#Cc1[nH]c(=S)[nH]c1N is > 100 µM (inactive)

response.value for C=CCn1c(=O)ccn(COCCO)c1=O (field: GI50) = > 100 µM (inactive)

Cc1ccc(NC(=O)CC2C(=O)Nc3ccccc3S2(=O)=O)cc1C (configuration not stated) yielded GI50 of > 100 µM (inactive)

So for CC(c1ccc2c(c1)CCC1C2CC2OC23CC=CC(=O)[C@]13C)C1C[C@]2(C)O[C@]2(C)[C@H](O)O1 (some centres not stated) , the logged GI50 turned out to be 25.3 µM (inactive)

Field GI50 (entry O=c1[nH]c(-c2ccccc2)nc2cc(Cl)ccc12 ) reads > 100 µM (inactive)

Recorded GI50 (molecule CC(C)=CCC/C(C)=C/CC/C(C)=C/CSc1ccccc1C(=O)O ): 35.9 µM (inactive)

Reported GI50 of CCCCc1ccc(Nc2nc(Cl)c3ncn(C4CC(Oc5ccc(C)cc5)C(COc5ccc(C)cc5)O4)c3n2)cc1 (configuration not stated) : > 100 µM (inactive)

Query CN(C)CN1C(=O)S/C(=C2\C(=O)N(CN(C)C)c3ccccc32)C1=O yields GI50 of 30.6 µM (inactive)

Per the record, N=C(N)N/N=C\c1ccc(C2CCNCC2)cc1 has GI50 of > 100 µM (inactive)

What the record says about O=c1ccccc2cccc(O)c12 : GI50 is > 100 µM (inactive)

* * *

test system: K562; assay: NCI tumour cell line growth inhibition, 48 h
The source made the active and inactive calls. No stated cut-off is given here; in the data, active = GI50 up to about 1.1 µM and inactive = higher.
Select the matching outcome among True for active, False for inactive

Prompt line: Call for entry CCOC(=O)NC(=S)NC(C)c1ccccc1 (centres undefined) :
Response line: False

Prompt line: I would be grateful if you could indicate the recorded call for O/N=C1\C/C(=N\O)c2c(Br)sc(Br)c21 .
Response line: False

* * *

test system: CCRF-CEM; test: NCI tumour cell line growth inhibition, 48 h
Active and inactive are the calls of the source. Cut-off read from the data, not from the text of the source: active = GI50 up to about 1.1 µM and inactive = higher.
# Lookup of reported GI50 keyed by entry

>  <molecule>
CCN(CC)C(=S)Oc1cc2oc(=O)cc(C)c2cc1Cl

>  <GI50>
> 100 µM (inactive)

$$$$
>  <molecule>
CCOC(=N)CC(=O)Nc1ccccc1CC

>  <GI50>
> 100 µM (inactive)

$$$$
>  <molecule>
Nc1ccc2nc(-c3cccc(Cl)c3)cc(O)c2c1

>  <GI50>
2.14 µM (inactive)

$$$$
>  <molecule>
COc1ccc2c3c1OC1C4(CCC5C(C2)N(CC2CC2)CCC351)OCCO4 (stereo unspecified)

>  <GI50>
> 100 µM (inactive)

$$$$
>  <molecule>
Brc1ccc(-c2cc3c(cc2C2SCCS2)OCO3)cc1

>  <GI50>
19.3 µM (inactive)

$$$$

The molecule CCCCCCC1CCC2CCCC(C)N12 (stereo unspecified) , when measured on CCRF-CEM, yielded GI50 of 19 µM (inactive)

Noted GI50 for O=C1c2ccccc2C(=O)N1CCCC(=O)n1cc(F)c(=O)[nH]c1=O , tested on CCRF-CEM: 18.6 µM (inactive)

Item: CC(C)CC(NC(=O)OCc1ccccc1)C(=O)NCCCCC(N)C(=O)NC(CCCCNC(=O)C(CC(C)C)NC(=O)OCc1ccccc1)C(=O)NC(CCCCNC(=O)C(CC(C)C)NC(=O)OCc1ccccc1)C(=O)NC(CCCCNC(=O)C(CC(C)C)NC(=O)OCc1ccccc1)C(=O)NC(CCCCNC(=O)C(CC(C)C)NC(=O)OCc1ccccc1)C(=O)NC(CCCCNC(=O)C(CC(C)C)NC(=O)OCc1ccccc1)C(=O)O (stereo unspecified) | System: CCRF-CEM | GI50: > 100 µM (inactive)

Assay CCRF-CEM, sample CCN1CCC(CNC(=O)c2ccc(N)cc2)N1CC (stereo unspecified) , GI50 read: > 100 µM (inactive)

Measured GI50 (CCRF-CEM), entry COc1ccc2nc3c(c(NCCCN(C)C)c2c1)CCCC3 : 4.83 µM (inactive)

// assay CCRF-CEM, entry COCOC1/C=C/CCCC#C[C@H](C)C(=O)CC1 (stereo partly specified) , GI50 value = 3.13 µM (inactive)

* * *

system: SK-MEL-2; assay: NCI tumour cell line growth inhibition, 48 h
Active and inactive are the calls of the source. Rule as the data show it: active = GI50 up to about 1.1 µM and inactive = higher.
parameter: GI50

Completed entries (count: 2):
>  <compound>
CCCCCCCCCC1(N=[N+]=[N-])C(=O)c2ccccc2N(C)C1=O (stereo unspecified)

>  <GI50>
25.4 µM (inactive)

$$$$
>  <compound>
O=C1NC(=O)C2C1C1C=C3c4ccccc4N(c4ccccc4)C32[C@H]2C(=O)NC(=O)[C@@H]12 (stereo partly specified)

>  <GI50>
> 100 µM (inactive)

$$$$

// C=C1C(=O)C[C@@]23CCC[C@@]12CC(OCOC)C3 (stereo partly specified) : GI50 value = 4.16 µM (inactive)

Briefly, GI50 measured for CSCCC(N)P(C)(=O)O (stereo unspecified) : > 100 µM (inactive)

The recorded GI50 for entry COC(=O)/C(C#N)=C(\Nc1ccccc1)N1CCOCC1 equals > 100 µM (inactive)

Value of GI50 reported for the compound O=C(O)CCCc1ccc2ccccc2c1 is > 100 µM (inactive)
